Target: MSI1 full-length (mouse, UniProt Q61474 1-362)
Sequence (Q61474 whole entry): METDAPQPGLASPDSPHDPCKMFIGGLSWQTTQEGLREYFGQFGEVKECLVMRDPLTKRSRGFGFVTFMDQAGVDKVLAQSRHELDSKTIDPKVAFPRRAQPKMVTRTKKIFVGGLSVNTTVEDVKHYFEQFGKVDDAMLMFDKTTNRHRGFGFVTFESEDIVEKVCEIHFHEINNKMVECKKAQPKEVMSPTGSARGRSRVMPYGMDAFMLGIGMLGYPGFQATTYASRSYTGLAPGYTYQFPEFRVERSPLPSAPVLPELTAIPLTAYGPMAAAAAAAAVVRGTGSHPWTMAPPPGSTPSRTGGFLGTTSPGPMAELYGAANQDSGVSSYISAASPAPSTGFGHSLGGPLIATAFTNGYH
Assay: nsRBNS (natural sequence RNA bind-n-seq); RBNS binding buffer (assumed for nsRBNS): 25 mM Tris pH 7.5, 150 mM KCl, 3 mM MgCl2, 0.01% Triton X-100, 500 ug/ml BSA, 20 U/ml SUPERase-In, 4 C; UNK is unkempt and MSI1 is Musashi-1; names of the RNAs are library labels; protein concentration not given here; high values mean tight binding
Over roughly 5,800 sequences, “enrichment r” has its median near 0.54; the highest 2% begin near 16. Shown is part of a subset that was picked to be rich in the highest values.
Respond with 1 for binding signal values of 8 enrichment R and above, -1 for values below.

Prompt: API: above_or_equal(metric=binding signal, cutoff=8 enrichment R) for item chr3:112140897:112141281:-|three_prime_utr|ENSG00000172139|control|control|control (ssRNA) RNA: GGGAGUUCUACAGUCCGACGAUCACUUUUUGCAAAAUUUCCUUGAUUUAAAAUAUUUGUUAUUUUAAAUAUACAAAACAUUUUAGAAAAUCUUAGAGUAAAUUUUAGUCUUAAAGCCAGAAAAUAAGUUUAUAGCCAUCUAGACAACAGAGGAUUGAGCAUCA
Response: 1

Prompt: Field entry: chr12:89590234:89590335:-|3pUTR|ENSG00000070961|msi1|FALSE|bound_elsewhere (ssRNA) RNA: GGGAGUUCUACAGUCCGACGAUCUUUGCCUACAAUUUACCUUGUUAAAUAUUGUAGAUAAAUUGCUAAUACUAAUAGCCAAAUAGAUAACACUAAUGCUUUGUUUAAAAAAACGAAAAAAACAAAACAAAACAAAAAAACAUGCAACAGAGGAUUGAGCAUCA
Response: -1

Prompt: Field entry: ENSG00000198589:be:win_9151|3pUTR|ENSG00000198589|bound_else_gene|NA|bound_elsewhere_windowed (ssRNA) RNA: GGGAGUUCUACAGUCCGACGAUCAUUGUGUGGUUAGCACAAGGAAUCUAAUUUAUAGCAAGUGUGAAAUAGUUACCAUUUUUUCCUGAUCUGUCAUCUUCAUAGCACAACAAAACGAAAUGAUGGAAAUGCUCUUGAGCUCACCAACAGAGGAUUGAGCAUCA
Response: 1

Prompt: Field entry: chr6:149410404:149410522:+|3pUTR|ENSG00000055208|unk|total|mutant (ssRNA) RNA: GGGAGUUCUACAGUCCGACGAUCUUAUAUUUCUAUAUGUACCGUGUAACCGCCUUUUGUUAACUAAUUUUCUUUUUUCCUUUCCGUAAUUAAGCACGAUCAUGUCCCUUUUUAAGCCUUACCUGAGAGGAACAAUGCCUUAAACAACAGAGGAUUGAGCAUCA
Response: 1

Prompt: Field entry: ENSG00000070961:be:win_6151|3pUTR|ENSG00000070961|bound_else_gene|NA|bound_elsewhere_windowed (ssRNA) RNA: GGGAGUUCUACAGUCCGACGAUCCAAUCACUUUUUCUCUUUUAUCCUCUAACCAAAAAAUUGUUUAAUUUUGCAUCCCAAAUGUUUUUAAUCUUUGUAUAUUUUUUAAAAAUCCUUUUCUCCUCAUCAUUGCCUUUUUUGUGGCAACAGAGGAUUGAGCAUCA
Response: -1

Prompt: Field entry: chr6:75256125:75256201:-|CDS_3pUTR|ENSG00000112697|msi1_unk|total|mutant (ssRNA) RNA: GGGAGUUCUACAGUCCGACGAUCUUUGGGGAUUGCUUACAUCGCUGUUGGAUCCAUCUCCUUCCUUCUGGGAGUUGUACUGCCCGUAAUUAAUCAUAAAUACCGAAACAGCCGUAAUACAGCUGACAUUACCAUUUAAUUUUACAACAGAGGAUUGAGCAUCA
Response: -1

Cited source for all entries: paper PMC12136788
